Organism: Homo sapiens
Test: Ratio of compound pIC50 to (4aR,4bS,6aS,7S,9aS,9bS,11aR)-N,N-diethyl-1,4a,6a-trimethyl-2-oxohexadecahydro-1H-indeno[5,4-f]quinoline-7-carboxamide pIC50 for human steroid 5alpha-reductase
Task for the reader: assign each of the following molecules its reported pIC50.

Study these solved cases before continuing.
Ask: Quick check: pIC50 of C[C@H](CO)[C@H]1CC[C@H]2[C@@H]3CC[C@H]4N(C)C(=O)CC[C@]4(C)[C@H]3CC[C@]12C ?
Reply: 6.82

Ask: Please do the same for CC(O)[C@H]1CC[C@H]2[C@@H]3CC[C@H]4N(C)C(=O)CC[C@]4(C)[C@H]3CC[C@]12C (some centres undefined) as well.
Reply: 6.77

Ask: Same question, CN1C(=O)CC[C@]2(C)[C@H]3CC[C@]4(C)[C@@H](C(=O)NC(C)(C)CC(C)(C)C)CC[C@H]4[C@@H]3CC[C@@H]12 this time
Reply: 8.28

Here is another molecule to look at.
Ask: Sample CCN(CC)C(=O)[C@H]1CC[C@H]2[C@@H]3CC[C@H]4N(C)C(=O)C(OC)(OC)C[C@]4(C)[C@H]3CC[C@]12C — what was its pIC50?
Reply: 6.55

---

Species on record: Homo sapiens
Test: Ratio of compound IC50 to (4aR,4bS,6aS,7S,9aS,9bS,11aR)-N,N-diethyl-1,4a,6a-trimethyl-2-oxohexadecahydro-1H-indeno[5,4-f]quinoline-7-carboxamide IC50 for human steroid 5alpha-reductase
Decide by Ratio IC50: equal to or exceeding 9 means class 1, less means class 0.

Ask: In plain terms: is recorded Ratio IC50 at least 9 for C[C@]12CCC(=O)N[C@@H]1CC[C@@H]1[C@@H]2CC[C@]2(C)[C@@H](C(=O)c3ccco3)CC[C@@H]12 ?
Reply: class 0

Ask: Also CCCCCNC(=O)[C@H]1CC[C@H]2[C@@H]3CC[C@H]4N(C)C(=O)CC[C@]4(C)[C@H]3CC[C@]12C ?
Reply: class 0

Ask: Next molecule up: CN1C(=O)CC[C@]2(C)[C@H]3CC[C@]4(C)[C@@H](C(=O)N5CCOCC5)CC[C@H]4[C@@H]3CC[C@@H]12
Reply: class 0

Ask: Another molecule to look at: CC(C)(C)OC(=O)[C@H]1CC[C@H]2[C@@H]3CC[C@H]4NC(=O)CC[C@]4(C)[C@H]3CC[C@]12C
Reply: class 0

Ask: What do you have for CCCCCCCNC(=O)[C@H]1CC[C@H]2[C@@H]3CC[C@H]4N(C)C(=O)CC[C@]4(C)[C@H]3CC[C@]12C ?
Reply: class 0

***
Ask: Is it the case that CCN(CC)C(=O)CNC(=O)[C@H]1CC[C@H]2[C@@H]3CC[C@H]4N(C)C(=O)CC[C@]4(C)[C@H]3CC[C@]12C has Ratio IC50 reaching or exceeding 9?
Reply: class 1

Ask: Same again, this time with CN1C(=O)CC[C@]2(C)[C@H]3CC[C@]4(C)[C@@H](C#N)CC[C@H]4[C@@H]3CC[C@@H]12
Reply: class 1

Ask: Likewise for COC(CNC(=O)[C@H]1CC[C@H]2[C@@H]3CC[C@H]4NC(=O)CC[C@]4(C)[C@H]3CC[C@]12C)OC ?
Reply: class 1

Ask: Next: CCN(CC)C(=O)CC[C@@H](C)[C@H]1CC[C@H]2[C@@H]3CC[C@H]4N(C)C(=O)CC[C@]4(C)[C@H]3CC[C@]12C
Reply: class 1

Ask: Moving on to the next molecule: CCN(CC)C(=O)[C@H]1CC[C@H]2[C@@H]3CC[C@H]4N(C)C(=O)[C@@H]5C[C@@H]5[C@]4(C)[C@H]3CC[C@]12C
Reply: class 0

Ask: Now consider CC(C)CC(=O)[C@H]1CC[C@H]2[C@@H]3CC[C@H]4NC(=O)CC[C@]4(C)[C@H]3CC[C@]12C .
Reply: class 0

Ask: // repeat for COC(=O)[C@H](C)[C@H]1CC[C@H]2[C@@H]3CC[C@H]4N(C)C(=O)CC[C@]4(C)[C@H]3CC[C@]12C and report
Reply: class 1

Ask: Similarly, C[C@]12CCC(=O)N[C@@H]1CC[C@@H]1[C@@H]2CC[C@]2(C)[C@@H](C(N)=O)CC[C@@H]12 ?
Reply: class 1

Ask: Moving on to CCCCCCCNC(=O)[C@H]1CC[C@H]2[C@@H]3CC[C@H]4NC(=O)CC[C@]4(C)[C@H]3CC[C@]12C
Reply: class 0

Ask: // same read-out, input: CC(O)[C@H]1CC[C@H]2[C@@H]3CC[C@H]4N(C)C(=O)CC[C@]4(C)[C@H]3CC[C@]12C (stereo partly specified)
Reply: class 1

Ask: Same question for CCN(CC)C(=O)[C@H]1CC[C@H]2[C@@H]3CC[C@H]4N(C)C(=O)CC[C@]4(C)[C@H]3CC[C@]12C please.
Reply: class 0

---

Organism: Homo sapiens
Test: Ratio of compound pIC50 to (4aR,4bS,6aS,7S,9aS,9bS,11aR)-N,N-diethyl-1,4a,6a-trimethyl-2-oxohexadecahydro-1H-indeno[5,4-f]quinoline-7-carboxamide pIC50 for human steroid 5alpha-reductase
Answer each item with its documented pIC50.
Give bare numbers.

Ask: Can you look up the measured pIC50 of CCCCCNC(=O)[C@H]1CC[C@H]2[C@@H]3CC[C@H]4N(C)C(=O)CC[C@]4(C)[C@H]3CC[C@]12C for me?
Reply: 7.62

Ask: Another: COC(=O)[C@H](C)[C@H]1CC[C@H]2[C@@H]3CC[C@H]4N(C)C(=O)CC[C@]4(C)[C@H]3CC[C@]12C
Reply: 5.84

Ask: What do you have for COC(=O)[C@H]1CC[C@H]2[C@@H]3CC[C@H]4N(C)C(=O)CC[C@]4(C)[C@H]3CC[C@]12C ?
Reply: 6.77

List pIC50 for every entry below, keeping the order given.
1. CC(C)(C)OC(=O)[C@H]1CC[C@H]2[C@@H]3CC[C@H]4NC(=O)CC[C@]4(C)[C@H]3CC[C@]12C
2. CC(C)N(C(=O)[C@H]1CC[C@H]2[C@@H]3CC[C@H]4N(C)C(=O)CC[C@]4(C)[C@H]3CC[C@]12C)C(C)C
3. CC(C)NC(=O)[C@H]1CC[C@H]2[C@@H]3CC[C@H]4N(C)C(=O)CC[C@]4(C)[C@H]3CC[C@]12C
4. C[C@]12CCC(=O)N[C@@H]1CC[C@@H]1[C@@H]2CC[C@]2(C)[C@@H](C(N)=O)CC[C@@H]12
5. CN1C(=O)CC[C@]2(C)[C@H]3CC[C@]4(C)[C@@H](C5=NCCO5)CC[C@H]4[C@@H]3CC[C@@H]12

Reply:
1: 7.07; 2: 8.09; 3: 7.4; 4: 5.82; 5: 6.96

---

Assignment: determine reported pIC50 for the given compounds.
Species on record: Homo sapiens
Test: Ratio of compound pIC50 to (4aR,4bS,6aS,7S,9aS,9bS,11aR)-N,N-diethyl-1,4a,6a-trimethyl-2-oxohexadecahydro-1H-indeno[5,4-f]quinoline-7-carboxamide pIC50 for human steroid 5alpha-reductase
Answers are plain numbers.

// solved cases for pIC50 follow
Ask: Consider the compound C[C@]12CCC(=O)N[C@@H]1CC[C@@H]1[C@@H]2CC[C@]2(C)[C@@H](C(=O)c3ccco3)CC[C@@H]12 and give its measured pIC50.
Reply: 7.44

Ask: Next compound: CN1C(=O)CC[C@]2(C)[C@H]3CC[C@]4(C)[C@@H](C#N)CC[C@H]4[C@@H]3CC[C@@H]12
Reply: 6.08

Ask: Same question for CCCCCCCNC(=O)[C@H]1CC[C@H]2[C@@H]3CC[C@H]4N(C)C(=O)CC[C@]4(C)[C@H]3CC[C@]12C please.
Reply: 7.4

Ask: How about CC(C)CC(=O)[C@H]1CC[C@H]2[C@@H]3CC[C@H]4NC(=O)CC[C@]4(C)[C@H]3CC[C@]12C ?
Reply: 7.38

Ask: Note, next up: COC(CNC(=O)[C@H]1CC[C@H]2[C@@H]3CC[C@H]4NC(=O)CC[C@]4(C)[C@H]3CC[C@]12C)OC
Reply: 6.7

Ask: // next record CCN(CCO)C(=O)[C@H]1CC[C@H]2[C@@H]3CC[C@H]4N(C)C(=O)CC[C@]4(C)[C@H]3CC[C@]12C
Reply: 7.52

Ask: Proceed to CC(C)N(C(=O)[C@H]1CC[C@H]2[C@@H]3CC[C@H]4NC(=O)CC[C@]4(C)[C@H]3CC[C@]12C)C(C)C
Reply: 7.82

Others:
Ask: Given CCNC(=O)[C@H]1CC[C@H]2[C@@H]3CC[C@H]4N(C)C(=O)CC[C@]4(C)[C@H]3CC[C@]12C , state its recorded pIC50.
Reply: 7.03

---

Organism: Homo sapiens
Test: Ratio of compound IC50 to (4aR,4bS,6aS,7S,9aS,9bS,11aR)-N,N-diethyl-1,4a,6a-trimethyl-2-oxohexadecahydro-1H-indeno[5,4-f]quinoline-7-carboxamide IC50 for human steroid 5alpha-reductase
endpoint_label: Ratio IC50
One number for each entry.

Completed entries (count: 4):
Ask: Given the entry CCN(CC)C(=O)[C@H]1CC[C@H]2[C@@H]3CC[C@H]4NC(=O)CC[C@]4(C)[C@H]3CC[C@]12C , report its measured Ratio IC50.
Reply: 1.2

Ask: Same for CC(C)N(C(=O)[C@H]1CC[C@H]2[C@@H]3CC[C@H]4N(C)C(=O)CC[C@]4(C)[C@H]3CC[C@]12C)C(C)C
Reply: 0.82

Ask: Also need CN1C(=O)CC[C@]2(C)[C@H]3CC[C@]4(C)[C@@H](C(=O)c5ccco5)CC[C@H]4[C@@H]3CC[C@@H]12 , thanks.
Reply: 2

Ask: Try this compound too: CCN(CC)C(=O)C[C@H]1CC[C@H]2[C@@H]3CC[C@H]4N(C)C(=O)CC[C@]4(C)[C@H]3CC[C@]12C
Reply: 2

List Ratio IC50 for every entry below, keeping the order given.
1. CCN(CC)C(=O)[C@H]1CC[C@H]2[C@@H]3CC[C@H]4N(C)C(=O)[C@@H](C)C[C@]4(C)[C@H]3CC[C@]12C
2. COC(=O)[C@H]1CC[C@H]2[C@@H]3CC[C@H]4N(C)C(=O)CC[C@]4(C)[C@H]3CC[C@]12C
3. CC(C)N(C(=O)[C@H]1CC[C@H]2[C@@H]3CC[C@H]4NC(=O)CC[C@]4(C)[C@H]3CC[C@]12C)C(C)C

Reply:
[3.6, 17, 1.5]
